# GI50 per entry
- Test system: NCI-H226
- assay name: NCI tumour cell line growth inhibition, 48 h
Activity calls are given as the source filed them. Rule as the data show it: active = GI50 up to about 1.1 µM and inactive = higher.

A selection of reference data follows.
| compound | GI50 |
| --- | --- |
| O=C1CCC(c2nc3ccccc3o2)C(=O)N1 (stereo not drawn) | > 100 µM (inactive) |
| CCCCCCCCCCn1cccc1/C=C/c1ccc(/C=C/c2cccn2CCCCCCCCCC)cc1 | > 100 µM (inactive) |
| CC1(C)CC(=O)/C(=C/C2CCNC2=S)C(=O)N1 (stereo not drawn) | > 100 µM (inactive) |
| c1ccc(C2=Nc3cccc4cccc(c34)N2)cc1 | > 78.3 µM (inactive) |

In: Quick one: GI50 of CC(O)C1OC(n2ccc(=O)[nH]c2=O)CC1n1cncn1 (stereo not drawn) ?
Out: 11.8 µM (inactive)

In: Record request: GI50 value, item "O=C1c2c(Br)sc(Br)c2[C@@H](Cl)[C@H]1Cl"
Out: 16.4 µM (inactive)

In: Requested field: GI50. Item: "O=C(CCCCCCCCC(=O)OCCCn1cc(C(=O)NC(=O)OCc2ccccc2)c(=O)[nH]c1=O)OCCCn1cc(C(=O)NC(=O)OCc2ccccc2)c(=O)[nH]c1=O"
Out: > 100 µM (inactive)

In: Please report the recorded GI50 for "CC(C)[C@H]1NC(=O)[C@H]2N=C(O[C@@H]2C)[C@@H]2CCCN2C(=O)[C@H](Cc2ccccc2)NC(=O)[C@@H]2COC(=N2)[C@@H](Cc2ccccc2)NC(=O)[C@@H]2COC1=N2" .
Out: > 100 µM (inactive)

In: Give its GI50 value. Item: CC(=O)O/C=C1/C[C@H]2[C@@H]3CCC4CC(C(C)=O)CC[C@]4(C)[C@H]3CC[C@]2(C)C1=O (stereo partly drawn)
Out: > 100 µM (inactive)

The reported numbers originate from ChEMBL document CHEMBL1201862.
